Biological target: β2-adrenergic receptor (B2-AR) (Homo sapiens)
Construct: expressed in transfected cells
Test: cAMP Gs dynamic HTRF assay, cells expressing β2-adrenergic receptor
Type: cell-based
Details: CHO-K1 (HitHunter) cells; read-out: Average pEC50 [Receptor subtype: B2-AR; Cell type: CHO-K1 (HitHunter)] (converted)
Property: EC50

Prompt line: Recall the recorded EC50 for CC(C)(C)NC[C@@H](O)c1ccc(C(F)(F)F)c2cccnc12 [Compound 04-81] with β2-adrenergic receptor (B2-AR) (Homo sapiens) and state it.
Response line: 100 to 1000 nM

Prompt line: Recall the recorded EC50 for CC(C)(C)NC[C@H](O)c1cccc2c1CC(=O)N2 [Compound 04-110] with β2-adrenergic receptor (B2-AR) (Homo sapiens) and state it.
Response line: > 1000 nM

Prompt line: Recall the recorded EC50 for CC(C)(C)NC[C@@H](O)c1ccc(F)c2[nH]c(=O)ccc12 [Compound 04-16] with β2-adrenergic receptor (B2-AR) (Homo sapiens) and state it.
Response line: 10 to 100 nM

Prompt line: Recall the recorded EC50 for CC(C)(C)NC[C@H](O)c1cccc2[nH]c3ncccc3c12 [Compound 04-131] with β2-adrenergic receptor (B2-AR) (Homo sapiens) and state it.
Response line: < 10 nM

Prompt line: Recall the recorded EC50 for CC(C)(C)NC[C@H](O)c1cccc2c1C(C)(C)C(=O)N2 [Compound 04-102] with β2-adrenergic receptor (B2-AR) (Homo sapiens) and state it.
Response line: 100 to 1000 nM

* * *

Provide the reported EC50 of each item.
Target: β1-adrenergic receptor (B1-AR) (Homo sapiens)
Construct: expressed in transfected cells
Sequence (P08588 whole entry): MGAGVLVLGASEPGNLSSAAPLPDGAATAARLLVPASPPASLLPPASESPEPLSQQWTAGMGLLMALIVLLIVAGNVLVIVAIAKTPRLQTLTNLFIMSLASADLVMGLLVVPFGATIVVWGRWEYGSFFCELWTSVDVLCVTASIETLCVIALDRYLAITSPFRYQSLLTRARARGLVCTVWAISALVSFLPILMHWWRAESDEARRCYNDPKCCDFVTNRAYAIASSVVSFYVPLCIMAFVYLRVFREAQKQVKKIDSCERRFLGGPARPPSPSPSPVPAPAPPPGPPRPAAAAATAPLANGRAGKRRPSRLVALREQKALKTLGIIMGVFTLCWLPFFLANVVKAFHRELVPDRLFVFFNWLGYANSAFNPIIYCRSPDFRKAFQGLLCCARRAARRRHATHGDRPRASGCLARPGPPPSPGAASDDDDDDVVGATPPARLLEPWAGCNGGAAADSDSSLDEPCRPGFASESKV
Experiment: cAMP Gs dynamic HTRF assay, cells expressing β1-adrenergic receptor
Format: cell-based
Details: CHO-K1 (HitHunter) cells; read-out: Average pEC50 [Receptor subtype: B1-AR; Cell type: CHO-K1 (HitHunter)] (converted)

Prompt line: Data request, read-out EC50, for CC(C)(C)NC[C@H](O)c1cccc2[nH]ncc12 [Compound 04-25]
Response line: < 10 nM

Prompt line: Data request, read-out EC50, for CC(C)(C)NC[C@H](O)c1cccc2c1C1(CC1)CN2 [Compound 04-120]
Response line: > 1000 nM

Prompt line: Data request, read-out EC50, for CC(C)(C)NC[C@H](O)c1c(Cl)ccc2[nH]ncc12 [Compound 04-139]
Response line: > 1000 nM

Prompt line: Data request, read-out EC50, for CC(C)(C)NC[C@H](O)c1cccc2[nH]c(=O)oc12 [Compound 04-116]
Response line: < 10 nM

Prompt line: Data request, read-out EC50, for CC(C)(C)NC[C@H](O)c1cccc2c(C#N)ccnc12 [Compound 04-78]
Response line: 100 to 1000 nM

* * *

Provide the reported EC50 of each item.
Target: β2-adrenergic receptor (B2-AR) (Homo sapiens, UniProt P07550)
Construct: expressed in transfected cells
Sequence (P07550 whole entry): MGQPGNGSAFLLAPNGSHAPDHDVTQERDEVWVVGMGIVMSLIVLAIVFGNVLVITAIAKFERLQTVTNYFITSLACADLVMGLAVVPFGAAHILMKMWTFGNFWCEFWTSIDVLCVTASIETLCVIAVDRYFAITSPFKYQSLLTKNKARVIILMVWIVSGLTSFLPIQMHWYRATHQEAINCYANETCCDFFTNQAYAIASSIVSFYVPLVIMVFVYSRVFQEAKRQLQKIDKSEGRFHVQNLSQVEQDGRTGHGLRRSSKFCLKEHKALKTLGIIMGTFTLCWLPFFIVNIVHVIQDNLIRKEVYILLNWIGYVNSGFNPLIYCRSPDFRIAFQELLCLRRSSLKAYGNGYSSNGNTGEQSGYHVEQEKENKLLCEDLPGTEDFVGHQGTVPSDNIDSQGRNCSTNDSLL
Assay: cAMP Gs dynamic HTRF assay, cells expressing β2-adrenergic receptor
Type: cell-based
Conditions: Table 2; cAMP HTRF; read-out: β2 EC50
Procedure: cAMP homogeneous time-resolved fluorescence (HTRF): experimental methods. Compound efficacy is determined using the cAMP Gs dynamic HTRF assay (Cisbio, catalog #62AM4PEC) largely following the manufacturer's instructions, also detailed below. Standard serial dilution curves are 10-point, 5-fold dilutions starting from a highest concentration of 10 μM. […] Assay plates are centrifuged at 500×g for 10 seconds. Compounds and IBMX are prepared at 2× final dose to compensate for addition of cells. […]

Prompt line: Data request, read-out EC50, for CC(C)(C)NC[C@H](O)c1cnc(N)c(Cl)c1
Response line: 10 to 100 nM

Prompt line: Data request, read-out EC50, for CC(C)(C)NC[C@H](O)c1cnc(N)c(C(F)(F)F)c1
Response line: > 1000 nM

* * *

Molecular target: β1-adrenergic receptor (B1-AR) (Homo sapiens)
Construct: expressed in transfected cells
Assay: cAMP Gs dynamic HTRF assay, cells expressing β1-adrenergic receptor
Assay type: cell-based
Conditions: Table 2; cAMP HTRF; read-out: β1 EC50
Property: EC50

Prompt line: Recall the recorded EC50 for CC(C)(C)NC[C@H](O)c1cnc(N)c(C(F)(F)F)c1 with β1-adrenergic receptor (B1-AR) (Homo sapiens) and state it.
Response line: > 1 µM

Prompt line: Recall the recorded EC50 for CC(C)(C)NC[C@H](O)c1cnc(N)c(Cl)c1 with β1-adrenergic receptor (B1-AR) (Homo sapiens) and state it.
Response line: 0.1 to 1 µM

* * *

Provide the reported EC50 of each item.
Molecular target: β2-adrenergic receptor (B2-AR) (Homo sapiens)
Construct: expressed in transfected cells
Assay: cAMP Gs dynamic HTRF assay, cells expressing β2-adrenergic receptor
Type: cell-based
Settings: CHO-K1 (HitHunter) cells; read-out: Average pEC50 [Receptor subtype: B2-AR; Cell type: CHO-K1 (HitHunter)] (converted)

Prompt line: Data request, read-out EC50, for CC(C)(C)NC[C@H](O)c1ccnc2[nH]ncc12
Response line: < 10 nM

Prompt line: Data request, read-out EC50, for CC(C)(C)NC[C@H](O)c1ccc(F)c2cccnc12
Response line: < 10 nM

Prompt line: Data request, read-out EC50, for CC(C)(C)NC[C@H](O)c1cccc2c1OC(C)(C)C(=O)N2
Response line: < 10 nM

Prompt line: Data request, read-out EC50, for CC(C)(C)NC[C@H](O)c1cccc2[nH]nc(C#N)c12
Response line: 10 to 100 nM

Prompt line: Data request, read-out EC50, for CC1(NC[C@H](O)c2cc(F)cc3[nH]ncc23)CCC1
Response line: < 10 nM

Prompt line: Data request, read-out EC50, for CC(C)(C)NC[C@H](O)c1cc(C#N)cc2[nH]ncc12
Response line: < 10 nM

Prompt line: Data request, read-out EC50, for CC(C)(C)NC[C@H](O)c1cccc2[nH]ccc12
Response line: > 1000 nM

Prompt line: Data request, read-out EC50, for Cn1ncc2c([C@@H](O)CNC(C)(C)C)cccc21
Response line: 10 to 100 nM

Prompt line: Data request, read-out EC50, for CC(C)(C)NC[C@H](O)c1cccc2[nH]c(=O)ccc12
Response line: < 10 nM

* * *

Provide the reported EC50 of each item.
Target: β2-adrenergic receptor (B2-AR) (Homo sapiens, UniProt P07550)
Construct: expressed in transfected cells
Assay: cAMP Gs dynamic HTRF assay, cells expressing β2-adrenergic receptor
Assay type: cell-based
Details: CHO-K1 (HitHunter) cells; read-out: Average pEC50 [Receptor subtype: B2-AR; Cell type: CHO-K1 (HitHunter)] (converted)

Prompt line: Recall the recorded EC50 for CC(C)(C)NC[C@H](O)c1ccc2ncccc2c1 with β2-adrenergic receptor (B2-AR) (Homo sapiens, UniProt P07550) and state it.
Response line: < 10 nM

Prompt line: Recall the recorded EC50 for CC(C)(C)NC[C@H](O)c1ccc2[nH]cnc2c1 with β2-adrenergic receptor (B2-AR) (Homo sapiens, UniProt P07550) and state it.
Response line: < 10 nM

Prompt line: Recall the recorded EC50 for CC(C)(C)NC[C@H](O)c1ccc2cccc(F)c2n1 with β2-adrenergic receptor (B2-AR) (Homo sapiens, UniProt P07550) and state it.
Response line: < 10 nM

Prompt line: Recall the recorded EC50 for CC(C)(C)NC[C@H](O)c1cccc2c1C1(CC1)CN2 with β2-adrenergic receptor (B2-AR) (Homo sapiens, UniProt P07550) and state it.
Response line: 100 to 1000 nM

Prompt line: Recall the recorded EC50 for CC(C)(C)NC[C@H](O)c1cccc2[nH]c(=O)oc12 with β2-adrenergic receptor (B2-AR) (Homo sapiens, UniProt P07550) and state it.
Response line: < 10 nM

Prompt line: Recall the recorded EC50 for CC(C)(C)NC[C@H](O)c1cccc2cn[nH]c12 with β2-adrenergic receptor (B2-AR) (Homo sapiens, UniProt P07550) and state it.
Response line: 10 to 100 nM

Prompt line: Recall the recorded EC50 for CC(C)(C)NCC(O)c1ccnc2ccccc12 (stereo not shown) with β2-adrenergic receptor (B2-AR) (Homo sapiens, UniProt P07550) and state it.
Response line: 10 to 100 nM

Prompt line: Recall the recorded EC50 for Cc1c[nH]c2cccc([C@@H](O)CNC(C)(C)C)c12 with β2-adrenergic receptor (B2-AR) (Homo sapiens, UniProt P07550) and state it.
Response line: > 1000 nM

Prompt line: Recall the recorded EC50 for CC(C)(C)NC[C@H](O)c1cccc2[nH]ncc12 [Compound 04-153] with β2-adrenergic receptor (B2-AR) (Homo sapiens, UniProt P07550) and state it.
Response line: 10 to 100 nM

Prompt line: Recall the recorded EC50 for CC(C)(C)NC[C@@H](O)c1cccc2c(C(F)(F)F)ccnc12 with β2-adrenergic receptor (B2-AR) (Homo sapiens, UniProt P07550) and state it.
Response line: < 10 nM

* * *

Provide the reported EC50 of each item.
Target: β2-adrenergic receptor (B2-AR) (Homo sapiens)
Construct: expressed in transfected cells
Assay: cAMP Gs dynamic HTRF assay, cells expressing β2-adrenergic receptor
Format: cell-based
Conditions: CHO-K1 (HitHunter) cells; read-out: Average pEC50 [Receptor subtype: B2-AR; Cell type: CHO-K1 (HitHunter)] (converted)
Procedure: cAMP homogeneous time-resolved fluorescence (HTRF): experimental methods. Compound efficacy is determined using the cAMP Gs dynamic HTRF assay (Cisbio, catalog #62AM4PEC) largely following the manufacturer's instructions, also detailed below. Standard serial dilution curves are 10-point, 5-fold dilutions starting from a highest concentration of 10 μM. […] Assay plates are centrifuged at 500×g for 10 seconds. Compounds and IBMX are prepared at 2× final dose to compensate for addition of cells. […]

Prompt line: Data request, read-out EC50, for CC(C)(C)NC[C@@H](O)c1cccc2nccnc12 [Compound 04-74]
Response line: > 1000 nM

Prompt line: Data request, read-out EC50, for CC(C)(C)NC[C@H](O)c1cc(Cl)c2[nH]cnc2c1 [Compound 04-117]
Response line: < 10 nM

Prompt line: Data request, read-out EC50, for Cc1cc(C(O)CNC(C)(C)C)nnc1N (centres unmarked) [Compound 02-3]
Response line: 100 to 1000 nM

Prompt line: Data request, read-out EC50, for CC(C)(C)NCC(O)c1cccc2ccccc12 (centres unmarked) [Compound 04-98]
Response line: 10 to 100 nM

Prompt line: Data request, read-out EC50, for CC(C)(C)NC[C@@H](O)c1c2cn[nH]c2cc[n+]1[O-] [Compound 04-107]
Response line: 100 to 1000 nM
